Counter-ions that a name gives are not always drawn.
z.score.t values recorded for hPSC-SCs

| compound | z.score.t |
| --- | --- |
| C[C@H]1CC[C@]2(NC1)O[C@H]1C[C@H]3[C@@H]4CC[C@H]5C[C@@H](O[C@@H]6O[C@H](CO)[C@H](O[C@@H]7O[C@H](CO)[C@@H](O)[C@H](O[C@@H]8OC[C@@H](O)[C@H](O)[C@H]8O)[C@H]7O[C@@H]7O[C@H](CO)[C@@H](O)[C@H](O)[C@H]7O)[C@H](O)[C@H]6O)CC[C@]5(C)[C@H]4CC[C@]3(C)[C@H]1[C@@H]2C [Tomatine] | −1.873 |
| CCN1CCCC(OC(=O)C(c2ccccc2)c2ccccc2)C1 (stereo not shown) [Piperidolate hydrochloride] | −1.025 |
| Cc1[nH]ccc2c1[nH]c1cc(=O)ccc12 [Harmol hydrochloride monohydrate] | −0.7233 |
| COc1ccc2c3c([nH]c2c1)C(C)=NCC3.Cl.O.O [Harmaline hydrochloride dihydrate] | 1.306 |
| Cl.OC1CCCCC1N1CCC(c2ccccc2)CC1 (stereo not drawn) [L(−)-vesamicol hydrochloride] | 0.6964 |
| CN1[C@@H]2C[C@@H](OC(=O)[C@H](CO)c3ccccc3)C[C@H]1[C@@H]1O[C@@H]12 [Scopolamine hydrochloride] | 0.07936 |
| Oc1ccc2c3c1O[C@H]1[C@@H](O)CC[C@@]4(O)[C@@H](C2)N(CC2CCC2)CC[C@]314 [Nalbuphine hydrochloride] | 0.1298 |
| C[C@@H]1NC(=O)NC1=O [Methylhydantoin-5-(L)] | 1.101 |
| CC[N+]1(C)[C@@H]2CC[C@H]1CC(OC(=O)[C@@H]1CC[C@@](C(=O)OC3C[C@H]4CC[C@@H](C3)[N+]4(C)CC)(c3ccccc3)c3ccccc31)C2.[Cl-].[Cl-] (stereo partly drawn) [beta-Belladonnine dichloroethylate] | 1.872 |
| CCNC1(c2cccs2)CCCCC1=O.Cl (stereo not shown) [Tiletamine hydrochloride] | 1.958 |
| COc1cc([C@@H]2c3cc4c(cc3[C@H](O)[C@H]3COC(=O)[C@H]23)OCO4)cc(OC)c1OC [Podophyllotoxin] | −2.152 |
| O=C(O)CCCc1ccc(N(CCCl)CCCl)cc1 [Chlorambucil] | −1.263 |
| C[C@@H]1O[C@@H](O[C@@H]2C=C3CC[C@@H]4[C@H](CC[C@]5(C)[C@@H](c6ccc(=O)oc6)CC[C@]45O)[C@@]3(C)CC2)[C@H](O)[C@H](O)[C@H]1O [Proscillaridin A] | −1.543 |

---

Test system: hPSC-SCs

| compound | z.score.t |
| --- | --- |
| NC(N)=NOCC[C@H](N)C(=O)O.O.O=S(=O)(O)O [Canavanine sulfate monohydrate (L, +)] | 1.095 |
| CN1CCc2cccc3c2[C@H]1Cc1ccc(O)c(O)c1-3.CN1CCc2cccc3c2[C@H]1Cc1ccc(O)c(O)c1-3.Cl.Cl.O | −1.904 |
| Cl.O=c1[nH]oc2c1CCNC2 [THIP Hydrochloride] | 0.9162 |
| CCC(=O)OCC(=O)[C@@]1(OC(=O)CC)[C@H](C)C[C@H]2[C@H]3[C@H]([C@@H](O)C[C@@]21C)[C@@]1(C)C=CC(=O)C=C1C[C@H]3Cl [Alclometasone dipropionate] | 1.456 |
| CN1[C@@H](C[C@@H](O)c2ccccc2)CCC[C@H]1C[C@H](O)c1ccccc1.Cl [Lobelanidine hydrochloride] | −0.3319 |
| CC(C)c1c(CN(C)C(C)Cc2ccccc2)n(C)n(-c2ccccc2)c1=O (stereo not shown) [Famprofazone] | −1.288 |
| CC(C)[N+]1(C)[C@@H]2CC[C@H]1CC(OC(=O)C(CO)c1ccccc1)C2.[Br-] (stereo partly shown) [Ipratropium bromide] | −0.649 |

---

In this section we review reported z.score.t values for a set of compounds.
System: hPSC-SCs
Where a name gives a salt, the structure may show the parent alone.

| compound | system | z.score.t |
| --- | --- | --- |
| C=C(C)[C@@H]1[C@H]2OC(=O)[C@@H]1[C@]1(O)C[C@H]3O[C@]34C(=O)O[C@H]2[C@]14C | hPSC-SCs | 1.281 |
| CN1[C@@H]2CC[C@H]1C[C@@H](OC(=O)[C@H](CO)c1ccccc1)C2 | hPSC-SCs | −0.528 |
| COc1ccc(CC2c3cc(OC)c(OC)cc3CCN2C)cc1OC (racemic) [Laudanosine (R,S)] | hPSC-SCs | −0.3319 |
| C[C@@H]1O[C@@H](O[C@H]2C[C@@H](O)[C@]3(CO)[C@H]4[C@H](O)C[C@]5(C)[C@@H](C6=CC(=O)OC6)CC[C@]5(O)[C@@H]4CC[C@]3(O)C2)[C@H](O)[C@H](O)[C@H]1O.O.O.O.O.O.O.O.O [Strophantine octahydrate] | hPSC-SCs | −2.04 |
| O=C(OCC(O)CO)c1ccccc1Nc1ccnc2cc(Cl)ccc12 (stereo not drawn) [Glafenine hydrochloride] | hPSC-SCs | −0.727 |
| CN(C)CCOC(=O)COc1ccc(Cl)cc1 [Meclofenoxate hydrochloride] | hPSC-SCs | −2.264 |
| Cl.Cl.c1ccc2c3c([nH]c2c1)C1C2CCC(C4CCCNC42)N1CC3 (stereo not drawn) [Nitrarine dihydrochloride] | hPSC-SCs | 0.3022 |
| Cc1n[nH]c(=O)[nH]c1=O | hPSC-SCs | −0.5337 |
| C=C1[C@H]2C[C@@]3([C@@H]1O)[C@@H](C[C@@H]2O)[C@]12[C@@H]4C[C@H]3[C@H]1N(CC)C[C@]4(C)CC[C@@H]2O | hPSC-SCs | 1.178 |
| CCN(CC)CCCC(C)Nc1ccnc2cc(Cl)ccc12 (stereo not drawn) [Chloroquine diphosphate] | hPSC-SCs | 0.7847 |
| CCCCNc1ccc(C(=O)OCCN(C)C)cc1.Cl [TetracaÂ<ne hydrochloride] | hPSC-SCs | −0.2276 |
| CCC(=O)O[C@H]1CC[C@H]2[C@@H]3CCC4=CC(=O)CC[C@]4(C)[C@H]3CC[C@]12C [Testosterone propionate] | hPSC-SCs | −1.014 |
| CCN1C[C@]2(C)CC[C@H](OC)[C@@]34C1[C@]1(OCO[C@@]15C[C@H](OC)[C@H]1C[C@]3(O)[C@@H]5[C@H]1OC)[C@@H](OC(C)=O)[C@H]24 | hPSC-SCs | 0.1693 |
| C(#CCN1CCCC1)CN1CCCC1.Cl.Cl [Tremorine dihydrochloride] | hPSC-SCs | −0.4139 |
| C#CCN(C)[C@H](C)Cc1ccccc1 [Selegiline hydrochloride] | hPSC-SCs | −0.9978 |

---

Test system: hPSC-SCs
Where a name gives a salt, the structure may show the parent alone.

| molecule | system | z.score.t |
| --- | --- | --- |
| COC1=CC(=O)O[C@@H](/C=C/c2ccccc2)C1 | hPSC-SCs | 0.9109 |
| OC(c1ccccc1)(c1ccccc1)C1CCNCC1 | hPSC-SCs | 0.5179 |
| COc1cc2c(cc1OC)C(C)NCC2.Cl (stereo not drawn) | hPSC-SCs | 0.3024 |
| NCCc1c[nH]c2ccc(O)cc12 [Serotonin hydrochloride] | hPSC-SCs | −1.195 |
| C[n+]1ccccc1/C=N/O [Pralidoxime chloride] | hPSC-SCs | −0.411 |
| O=[N+]([O-])c1cc([As](=O)(O)O)ccc1O | hPSC-SCs | −0.751 |

---

z.score.t values recorded for hPSC-SCs
Structures can show the parent of a compound that is named as a salt.

| molecule | z.score.t |
| --- | --- |
| COC1=C[C@@H]2C3=C([C@@H]2C1=O)[C@@H](NC(C)=O)CCc1cc(OC)c(OC)c(OC)c13 [Lumicolchicine gamma] | 1.528 |
| COC(=O)Nc1nc2ccc(SC(C)C)cc2[nH]1 [Methiazole] | −1.263 |
| CN(C)C(=O)C(CCN1CCC(O)(c2ccc(Cl)cc2)CC1)(c1ccccc1)c1ccccc1 [Loperamide hydrochloride] | −1.329 |
| C[C@]12CC[C@H](O)C[C@@H]1CC[C@@H]1[C@@H]2CC[C@]2(C)C(=O)CC[C@@H]12 [Epiandrosterone] | 1.457 |
| COc1ccc(C[C@H]2NC[C@H](O)[C@H]2OC(C)=O)cc1 [Anisomycin] | −2.056 |
| C[C@H]1C(=O)O[C@@H]2CCN3CC=C(COC(=O)[C@](C)(O)[C@]1(C)O)[C@H]23 [Monocrotaline] | 0.5046 |
| C[C@]12CC[C@@H](O)C[C@H]1CC[C@@H]1[C@@H]2CC[C@]2(C)C(=O)CC[C@@H]12 [3-alpha-Hydroxy-5-beta-androstan-17-one] | −0.1014 |
